- Assay Info: chemical genetic growth profiling, strain panel (AID 1159580);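 further: tested at 20 µM; growth read once vehicle control cultures reached saturation at 30 °C; 1 = growth at the plate median or of vehicle wells; lower values mean less growth of the strain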
- Reported Conditions: S. cerevisiae deletion strains, growth OD, locus YJL157C, strain FAR1, stronger effect = lower value
Out of some 5,500 compounds screened, about 2,000 (36%) were called active. Not shown: some 18% with an inconclusive outcome. The list shows a part of the results.
Measure: normalized growth
Please give only the number in your answer, with no unit.

Answered examples (3):
INSERT INTO results (compound, measure, numeric_readout) VALUES
  ('CC1(C)C=Cc2cc(/C(N)=N\OC(=O)Nc3cccc(C(F)(F)F)c3)ccc2O1', 'normalized growth', 0.96),
  ('OC(COCc1ccccc1)Cn1c2ccccc2c2ccccc21 (centres undefined)', 'normalized growth', 0.882),
  ('FC(F)(F)Oc1ccc(OCc2n[nH]c(=S)n2-c2ccc(Cl)cc2)cc1', 'normalized growth', 1);

Let us move to another entry and its normalized growth.
// query Quick one: normalized growth of O=S(=O)(Nc1ccccc1Sc1c(Cl)cncc1Cl)c1ccc(Cl)cc1 ?
// result 0.997

###

- Assay Info: chemical genetic growth profiling, strain panel (AID 1159580);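 further: tested at 20 µM; growth read once vehicle control cultures reached saturation at 30 °C; 1 = growth at the plate median or of vehicle wells; lower values mean less growth of the strain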
- Reported Conditions: S. cerevisiae deletion strains, growth OD, locus YPR141C, strain kar3, stronger effect = lower value
The whole screen tested about 5,500 compounds, of which about 2,000 (36%) were called active. About 18% were inconclusive and are not listed. The list shows a part of the results.
The following compounds are listed with their measured normalized growth values.
Please give only the number in your answer, with no unit.

Answered examples (3):
INSERT INTO measurements (compound, numeric_readout) VALUES
  ('CC(=O)OCC(=O)[C@@]1(O)CCC2C3C[C@H](C)C4=CC(=O)C=CC4(C)C3[C@@H](O)CC21C (some centres undefined)', 1.01),
  ('C[C@@H](CO)NC(=O)C1C=C2c3cccc4[nH]cc(c34)C[C@H]2N(C)C1 (some centres undefined)', 0.993),
  ('COc1ccc(-c2cc(=O)c3c(O)c(OC)c(O[C@H]4O[C@H](CO[C@@H]5O[C@@H](C)[C@H](O)[C@@H](O)[C@H]5O)[C@@H](O)[C@H](O)[C@H]4O)cc3o2)cc1', 1.02);

Let us move to another entry and its normalized growth.
// query Quick one: normalized growth of COC(=O)C(N)CS (centres undefined) ?
// result 0.979

###

- Assay Info: chemical genetic growth profiling, strain panel (AID 1159580);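 further: tested at 20 µM; growth read once vehicle control cultures reached saturation at 30 °C; 1 = growth at the plate median or of vehicle wells; lower values mean less growth of the strain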
- Reported Conditions: S. cerevisiae deletion strains, growth OD, locus YNR030W, strain Alg12, stronger effect = lower value
In all, about 5,500 compounds went through this assay and about 2,000 (36%) were called active. Another 18% or so got no clear call; they are omitted. This is one part of the list.
Measure: normalized growth

INSERT INTO results (compound, result) VALUES
  ('CSc1cc(C(F)(F)F)cc(SC)c1SC', '0.974 (inactive)'),
  ('OCC(O)Cn1c2ccccc2c2ccccc21 (stereo not given)', '0.977 (inactive)');

// query Quick one: normalized growth of N#CCCN1C(=O)C2(OCCO2)c2ccccc21 ?
// result 1 (inactive)

// query Quick one: normalized growth of Cc1ccc(Sc2ncccc2C(=O)NCC(=O)O)cc1 ?
// result 1.02 (inactive)

// query Quick one: normalized growth of Cc1ccc(S(=O)(=O)N2CCC(N)=N2)cc1 ?
// result 0.992 (inactive)

Origin of the recorded values: PubChem BioAssay AID1159580
